Property: pKd; scope: individual binders
SYSTEM NAME: T1, NativeRPtag(large)_with_Tags_and_Cys (Thermoanaerobacter tengcongensis)
T1 construct: Unlabeled in anisotropy assays; coupled through the engineered N-terminal Cys to SulfoLink agarose or maleimide plates in column, pull-down and ELISA assays
T1 chain: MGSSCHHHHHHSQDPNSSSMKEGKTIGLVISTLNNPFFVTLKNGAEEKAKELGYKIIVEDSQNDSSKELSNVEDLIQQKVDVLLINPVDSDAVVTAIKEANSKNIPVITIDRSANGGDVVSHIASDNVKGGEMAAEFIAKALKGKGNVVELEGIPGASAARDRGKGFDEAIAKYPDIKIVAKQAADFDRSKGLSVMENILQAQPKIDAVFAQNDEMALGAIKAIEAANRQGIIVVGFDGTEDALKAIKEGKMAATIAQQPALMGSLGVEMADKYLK
TEST SUMMARY: fluorescence anisotropy
No end group written: not given here. *: point of attachment. RhodamineB = CCN(CC)c1ccc2c(-c3ccccc3C(=O)*)c3ccc(=[N+](CC)CC)cc-3oc2c1
In plain terms, pKd is the concentration in mol/L turned into minus its base-10 logarithm.

{"columns": ["BINDER", "pKd"],
 "data": [
  ["RhodamineB-GEKIPNFIPAELKLITK [RPtag(small) Cd4]", 9.00],
  ["RhodamineB-ELKLITKE [RPtag(small) Nd10, Cd3]", 7.24]
]}

GET /values?readout=pKd&item= RhodamineB-FIPAELKLITKENVQ [RPtag(small) Nd6] 9.27

Then this binder: RhodamineB-KIPNFIPAELKLITKANVQ [RPtag(small) Nd2, e18a] 9.89

Repeat for the following binder: RhodamineB-GEKIPNFIPAELKLIT [RPtag(small) Cd5] 8.44

What do we get for RhodamineB-GEKIPNFIPAELKLITKE [RPtag(small) Cd3] ? 8.92

Please answer likewise for RhodamineB-RIANFIPAELKLITKANVQ [RPtag(small) Nd2, k3r, p5a, e18a] 9.59
